Give measured growth inhibition by drug plus 177Lu-lilotomab satetraxetan for each item. Keep answers brief.
- Test system: U-2932
- assay-name: growth inhibition by drug plus 177Lu-lilotomab satetraxetan (1 - RLU/untreated control) (fraction); higher = stronger inhibition
- condition-context: 10 nM; time (day): 5; 177Lu-lilotomab satetraxetan 1 ug/ml
One number for each entry.

molecule="CCc1ccc(CCOc2ccc(CC3SC(=O)NC3=O)cc2)nc1 (stereo not given)" numeric_readout=0.0193
molecule=C[C@@H](Oc1cc(-n2cnc3ccc(CN4CCN(C)CC4)cc32)sc1C(N)=O)c1ccccc1C(F)(F)F numeric_readout=0.536
molecule=Nc1nc2[nH]cc(CCc3ccc(C(=O)N[C@@H](CCC(=O)O)C(=O)O)cc3)c2c(=O)[nH]1 numeric_readout=0.000411

Here are 2 molecules. What values of growth inhibition by drug plus 177Lu-lilotomab satetraxetan were reported for them?
1. CC(C=CC(=O)NO)=CC(C)C(=O)c1ccc(N(C)C)cc1 (stereo not given)
2. Cn1cc(-c2ccc3nnc(C(F)(F)c4ccc5ncccc5c4)n3n2)cn1

A:
[0.0335, 0.0158]

---

- Test system: U-2932
- assay-name: growth inhibition by drug alone (1 - RLU/untreated control) (fraction); higher = stronger inhibition
- condition-context: 10 nM; time (day): 6; 177Lu-lilotomab satetraxetan 0 ug/ml
Structures can show the parent of a compound that is named as a salt.
For each of the compounds below, state its growth inhibition by drug alone.
One number for each entry.

Use the examples below as a reference point.
compound="O=C1CN2Cc3c(ccc(Cl)c3Cl)N=C2N1 [Anagrelide hydrochloride]" attribute_measured="growth inhibition by drug alone" numeric_readout=-0.0568
compound="CC(C=CC(=O)NO)=CC(C)C(=O)c1ccc(N(C)C)cc1 (stereo not drawn)" attribute_measured="growth inhibition by drug alone" numeric_readout=-0.0676
compound=O=C(NCCCNc1nc(Nc2cccc(NC(=O)N3CCCC3)c2)ncc1I)c1cccs1 attribute_measured="growth inhibition by drug alone" numeric_readout=0.047
compound=CC(C)(C#N)c1cc(Cn2cncn2)cc(C(C)(C)C#N)c1 attribute_measured="growth inhibition by drug alone" numeric_readout=-0.021
compound=C[C@]12CC[C@@H]3c4ccc(O)cc4CC[C@H]3[C@@H]1CC[C@@H]2O attribute_measured="growth inhibition by drug alone" numeric_readout=-0.0255

Would you be so kind as to report growth inhibition by drug alone for each listed record?
1. CC[C@@]1(O)C(=O)OCc2c1cc1n(c2=O)Cc2cc3c(CN(C)C)c(O)ccc3nc2-1 [Topotecan HCl]
2. O=C(c1ccc(OCCN2CCCCC2)cc1)c1c(-c2ccc(O)cc2)sc2cc(O)ccc12 [Evista (Raloxifene Hydrochloride)]
3. CN1CCC(CNc2ccc3ncc(-c4cccc(OC(F)(F)F)c4)n3n2)CC1 [SGI-1776 free base]

A:
0.586
-0.131
-0.415

---

- Test system: RIVA
- assay-name: growth inhibition by drug plus 177Lu-lilotomab satetraxetan (1 - RLU/untreated control) (fraction); higher = stronger inhibition
- condition-context: 10 nM; time (day): 4; 177Lu-lilotomab satetraxetan 0.5 ug/ml
Record form. Attribute: growth inhibition by drug plus 177Lu-lilotomab satetraxetan. Fill in for each entry.
Numbers only.

compound=COc1cc(OC2CCN(C)CC2)ccc1Nc1ncc2c(n1)n(C1CCCC1)c(=O)n2C numeric_readout=0.578
compound=COc1c(C)cnc(Cn2cnc3c(Cl)nc(N)nc32)c1C numeric_readout=0.587

Items follow; give growth inhibition by drug plus 177Lu-lilotomab satetraxetan for each.
1. Cc1ccc(C(=O)Nc2ccc(CN3CCN(C)CC3)c(C(F)(F)F)c2)cc1C#Cc1cnc2cccnn12
2. COc1cc2nccc(Oc3ccc(NC(=O)Nc4cc(C)on4)c(Cl)c3)c2cc1OC [Tivozanib (AV-951)]
3. CCCCc1nc2cc(/C=C/C(=O)NO)ccc2n1CCN(CC)CC [SB939 (Pracinostat)]
4. CC#C[C@]1(O)CC[C@H]2[C@@H]3CCC4=CC(=O)CCC4=C3[C@@H](c3ccc(N(C)C)cc3)C[C@@]21C [Mifepristone (Mifeprex)]
5. c1ccc2c(-c3cnn4cc(-c5ccc(N6CCNCC6)cc5)cnc34)ccnc2c1
6. COc1cc2ncnc(-n3nc(-c4ccccn4)nc3N)c2cc1OC

A:
1. 0.475
2. 0.547
3. 0.663
4. 0.477
5. 0.521
6. 0.573

Q: // query growth inhibition by drug plus 177Lu-lilotomab satetraxetan value for entry CC[C@@H]1C(=O)N(C)c2cnc(Nc3ccc(C(=O)N[C@H]4CC[C@H](N5CCN(CC6CC6)CC5)CC4)cc3OC)nc2N1C(C)C [BI6727 (Volasertib)]
A: 0.702
